Target: human dopamine D2 receptor (hD2R) (Homo sapiens)
Sequence (P14416 whole entry): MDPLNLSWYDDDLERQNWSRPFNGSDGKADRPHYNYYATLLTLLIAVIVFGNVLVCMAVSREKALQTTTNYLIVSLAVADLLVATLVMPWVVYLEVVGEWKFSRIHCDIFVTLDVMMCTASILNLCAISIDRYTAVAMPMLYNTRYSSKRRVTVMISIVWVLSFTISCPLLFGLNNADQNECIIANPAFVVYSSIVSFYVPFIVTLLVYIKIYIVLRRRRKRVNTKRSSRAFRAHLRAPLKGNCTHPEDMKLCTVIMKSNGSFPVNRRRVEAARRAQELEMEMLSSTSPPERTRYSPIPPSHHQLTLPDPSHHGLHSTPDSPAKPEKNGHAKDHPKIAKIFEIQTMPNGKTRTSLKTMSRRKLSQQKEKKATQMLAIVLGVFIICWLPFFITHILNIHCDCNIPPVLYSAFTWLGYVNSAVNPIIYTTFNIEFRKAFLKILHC
Assay: Human D2 receptor binding assay ([^3H]-Spiperone)
Settings: CHO cells expressing hD2R, geometric mean of 2-5 determinations unless marked b (single determination)
Method: Human D2 Receptor and Human D3 Receptor Binding Assays: These determined ligand and tissue concentrations were utilized in time course studies to determine linearity and equilibrium conditions for binding. […] The hD2R assay buffer contains 50 mM Tris (pH 7.4 @ 37° C.), 100 mM NaCl and 1 mM MgCl2. […] Non-specific binding was determined by radioligand binding in the presence of a saturating concentration of Haldol (10 μM). […] Ki values were then calculated according to the Cheng-Prusoff equation: […]
VALUE TYPE: Ki (nM)

In the examples that follow, each entry is paired with its recorded Ki.
1) COc1nc2c(cc1NS(=O)(=O)c1ccc([C@H]3C[C@H](OCCF)C3)cc1)CCN(C)CC2 [Example 3]
85.9
2) CCN1CCc2cc(NS(=O)(=O)c3ccc([C@]4(F)C[C@H](OC)C4)cc3)c(OC)nc2CC1 [Example 96]
317
3) CCN1CCc2cc(NS(=O)(=O)c3ccc4c(c3)CCC(C)(C)O4)c(OC)nc2CC1 [Example 64]
21.2

A. CCN1CCc2cc(NS(=O)(=O)c3ccc([C@H]4C[C@H](OCCF)C4)cc3)c(OC)nc2CC1 [Example 20]
B. CCN1CCc2cc(NS(=O)(=O)c3ccc(Oc4ccccc4)nc3)c(OC)nc2CC1 [Example 60]
Ask: Of A versus B , which is the one with smaller reported Ki? Write the label of whichever entry you select.
Result: A
